These data points were gathered from patent US10233186B2.

# TARGET_OR_TEST_SYSTEM: human ALK2 R206H (Homo sapiens, UniProt Q04771, R206H)
# Construct: expressed in transfected cells; host or cells: HEK293 (ATCC CRL1573), lentivirus transduction, blasticidin selection
# TEST_PROTOCOL: Cell-based ALK2-R206H cell activity assay (Smad1-Ser463/Ser465 phosphorylation by AlphaLISA in HEK293-ALK2-R206H cells)
# STATED_CONDITIONS: read-out: Cell Line (Cell Assay IC50)
So I've got a bunch of molecules here, and I need their IC50 values.

Here is how some molecules turned out for IC50.
Q) Fill in reported IC50 for this entry: CCN1CCC(c2ccc(-c3cc4c(N5CCN(C(=O)[C@H]6CC6(C)C)CC5)ccnn4c3)cc2)C1 (stereo partly shown) [Compound 251]
A) < 100 nM

Q) Fill in reported IC50 for this entry: N[C@H](CO)c1ccc(-c2cc3c(N4CCN(C(=O)OC5COC5)CC4)ccnn3c2)cc1 [Compound 762]
A) 100 to 500 nM

Q) Fill in reported IC50 for this entry: C[C@H]1CN(c2ccc(-c3cc4c(N5CCN(C(=O)C6CC6)CC5)ccnn4c3)cc2)CCN1 [Compound 156]
A) < 100 nM

Q) Fill in reported IC50 for this entry: CC(C)N1CCNC(c2ccc(-c3cc4c(N5CCN(C(=O)C6CC6)CC5)ccnn4c3)cc2)C1 (stereo not shown) [Compound 516]
A) < 100 nM

Q) Fill in reported IC50 for this entry: C[C@@H]1CNC[C@H](c2ccc(-c3cc4c(N5CCN(C(=O)C6CC6)CC5)ccnn4c3)cc2)O1 [Compound 164]
A) 100 to 500 nM

Q) Fill in reported IC50 for this entry: CCOC(=O)N1CCN(c2ccnn3cc(-c4ccc([C@]5(F)CCCN(C(C)C)C5)cc4)cc23)CC1 [Compound 610]
A) < 100 nM

New cases:
Q) Fill in reported IC50 for this entry: CC(C)N1CCN(C)[C@@H](c2ccc(-c3cc4c(N5CCN(C(=O)C6CC6)CC5)ccnn4c3)cc2)C1 [Compound 567]
A) < 100 nM

----------
So I've got a bunch of compounds here, and I need their pIC50 values.
# TARGET_OR_TEST_SYSTEM: ALK2 R206H (GST-tagged mutant ALK2) (Homo sapiens, UniProt Q04771, R206H)
# Construct: purchased Carna Bioscience or ThermoFisher 09-148 or PV6232
# Sequence (Q04771 21-509 R206H): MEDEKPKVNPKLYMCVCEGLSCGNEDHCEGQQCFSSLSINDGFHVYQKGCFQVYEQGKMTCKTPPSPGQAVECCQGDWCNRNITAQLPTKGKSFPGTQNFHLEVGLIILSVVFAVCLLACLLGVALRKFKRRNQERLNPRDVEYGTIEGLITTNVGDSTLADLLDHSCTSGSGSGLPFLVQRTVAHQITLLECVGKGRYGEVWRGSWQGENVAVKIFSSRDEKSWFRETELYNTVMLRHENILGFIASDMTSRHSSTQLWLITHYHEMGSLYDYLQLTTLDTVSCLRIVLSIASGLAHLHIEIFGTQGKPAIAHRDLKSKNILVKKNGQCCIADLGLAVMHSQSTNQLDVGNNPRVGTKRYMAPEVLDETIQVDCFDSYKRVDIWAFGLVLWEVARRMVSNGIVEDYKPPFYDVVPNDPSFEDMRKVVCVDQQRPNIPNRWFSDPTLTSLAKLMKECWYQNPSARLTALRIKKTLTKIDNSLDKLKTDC
# TEST_PROTOCOL: ALK binding assay (LANTHASCREEN TR-FRET competitive binding, displacement of Kinase Tracer 178)
# STATED_CONDITIONS: ALK2 R206H, LANTHASCREEN TR-FRET competitive binding; read-out: Binding Assay (IC50)
pIC50: −log10 of the molar value.

Here is how some compounds turned out for pIC50.
Q) Fill in reported pIC50 for this entry: CC(C)N1CCC[C@H](c2ccc(-c3cc4c(N5CCN(C(=O)OC6COC6)CC5)ccnn4c3)cc2)C1
A) > 8.00

Q) Fill in reported pIC50 for this entry: CCNC(=O)N1CCN(c2ccnn3cc(-c4ccc([C@@]5(OCC)CCCN(C(C)C)C5)cc4)cc23)CC1
A) > 8.00

For every item in the list below, what is its measured pIC50?
1. CC(C)(C)OC(=O)N1CCC(N)(c2ccc(-c3cc4c(N5CCN(C(=O)C6CC6)CC5)ccnn4c3)cc2)CC1
2. CCN1CCN(c2ccc(-c3cc4c(N5CCN(C(=O)C6(c7ccsc7)CC6)CC5)ccnn4c3)cc2)CC1

A)
1: > 8.00; 2: 7.30 to 8.00

----------
# TARGET_OR_TEST_SYSTEM: ALK2 R206H (GST-tagged mutant ALK2) (Homo sapiens, UniProt Q04771, R206H)
# Construct: purchased Carna Bioscience or ThermoFisher 09-148 or PV6232
# TEST_PROTOCOL: ALK binding assay (LANTHASCREEN TR-FRET competitive binding, displacement of Kinase Tracer 178)
# STATED_CONDITIONS: ALK2 R206H, LANTHASCREEN TR-FRET competitive binding; read-out: Binding Assay (IC50)
EXPERIMENTAL_ENDPOINT: IC50

Here is how some compounds turned out for IC50.
Q) Fill in reported IC50 for this entry: CC(C)NC(=O)N1CCN(c2ccnn3cc(-c4ccc(C5(O)CN(C(C)C)C5)cc4)cc23)CC1
A) < 10 nM

Q) Fill in reported IC50 for this entry: O=C(C1CC1)N1CCN(c2ccnn3cc(-c4ccc(C5CC6(CNC6)C5)cc4)cc23)CC1
A) < 10 nM

Q) Fill in reported IC50 for this entry: O=C(C1CC1)N1CCN(c2ccnn3cc(-c4ccc(C5(F)CCCNC5)cc4)cc23)CC1 (centres unmarked)
A) < 10 nM

Q) Fill in reported IC50 for this entry: O=C(C1CC1)N1CCN(c2ccnn3cc(-c4ccc(C5CNCCO5)cc4)cc23)CC1 (centres unmarked)
A) < 10 nM

Q) Fill in reported IC50 for this entry: CCOC(=O)N1CCN(c2ccnn3cc(-c4ccc([C@]5(OC)CCCNC5)cc4)cc23)CC1
A) < 10 nM

Q) Fill in reported IC50 for this entry: CCN1CCN(c2ccc(-c3cc4c(N5CCN(C(=O)C6CC(C#N)C6)CC5)ccnn4c3)cc2)CC1 (centres unmarked)
A) < 10 nM

Q) Fill in reported IC50 for this entry: CO[C@]1(c2ccc(-c3cc4c(N5CCN(C(=O)C6CC6)CC5)ccnn4c3)cc2)CCN(C(C)C)C1
A) < 10 nM

Q) Fill in reported IC50 for this entry: N#C[C@H]1CC[C@H](C(=O)N2CCN(c3ccnn4cc(-c5ccc(C6CNCCO6)cc5)cc34)CC2)CC1 (some centres unmarked)
A) < 10 nM

Q) Fill in reported IC50 for this entry: CCNC(=O)N1CCN(c2ccnn3cc(-c4ccc([C@@]5(O)CCCN(C(C)C)C5)cc4)cc23)CC1
A) < 10 nM

Q) Fill in reported IC50 for this entry: CCO[C@]1(c2ccc(-c3cc4c(N5CCN(C(=O)OC6COC6)CC5)ccnn4c3)cc2)CCCNC1
A) < 10 nM

For every item in the list below, what is its measured IC50?
1. CCN1CCN(c2ccc(-c3cc4c(N5CCN(C(=O)C6CC6)CC5)ccnn4c3)cc2)C[C@H]1C
2. CCNC(=O)N1CCN(c2ccnn3cc(-c4cnc(C5CCN(C(C)C)CC5)nc4)cc23)CC1
3. CCNC(=O)N1CCN(c2ccnn3cc(-c4ccc([C@H]5CCCN(C(C)C)C5)cn4)cc23)CC1
4. COC1(c2ccc(-c3cc4c(N5CCN(C(=O)OC6COC6)CC5)ccnn4c3)nc2)CCNCC1
5. CC(C)NC(=O)N1CCN(c2ccnn3cc(-c4cnn([C@H]5CCCN(C(C)C)C5)c4)cc23)CC1
6. CO[C@@]1(c2ccc(-c3cc4c(N5CCN(C(=O)NC(C)C)CC5)ccnn4c3)nc2)CCCN(C(C)C)C1
7. O=C(C1CC1)N1CCN(c2ccnn3cc(-c4ccc([C@H]5CCNC[C@H]5F)cc4)cc23)CC1
8. CO[C@@]1(c2ccc(-c3cc4c(N5CCN(C(=O)OC6COC6)CC5)ccnn4c3)nc2)CCCN(C(C)C)C1

A)
1. < 10 nM
2. < 10 nM
3. < 10 nM
4. < 10 nM
5. < 10 nM
6. < 10 nM
7. 10 to 50 nM
8. < 10 nM

For every item in the list below, what is its measured IC50?
1. COC1(c2ccc(-c3cc4c(N5CCN(C(=O)[C@H]6C[C@H](C#N)C6)CC5)ccnn4c3)nc2)CCN([C@H](C)CO)CC1
2. CC(C)N1CCN(c2ccc(-c3cc4c(N5CCN(C(=O)C6CC6)[C@H](C)C5)ccnn4c3)cc2)CC1
3. CCOC(=O)N1CCN(c2ccnn3cc(-c4ccc([C@]5(C)CCCN5C(C)C)cc4)cc23)CC1

A)
< 10 nM
< 10 nM
< 10 nM
